These entries and their values trace back to ChEMBL document CHEMBL4411307.

- ASSAY: Selectivity index, ratio of compound concentration showing <20 to <25% hemolysis in mouse RBC to MIC for Candida krusei ATCC 6258
- Assay type: toxicity
- PROTOCOL_CONDITIONS: red blood cells (erythrocytes), read-out: Selectivity Index

TEST_SMILES: C(=N\Nc1ccccc1)/c1ccc(-c2cccc(/C=N/Nc3ccccc3)c2)cc1
selectivity ratio: 1 to 32
--
TEST_SMILES: C(=N\Nc1ccccc1)/c1ccc(-c2ccc(/C=N/Nc3ccccc3)cc2)cc1
selectivity ratio: 1 to 32

---

- ASSAY: Selectivity index, ratio of compound concentration showing <25% hemolysis in mouse RBC to MIC for fluconazole/ITC-susceptible Candida albicans ATCC MYA-2310
- Assay type: toxicity
- PROTOCOL_CONDITIONS: mouse red blood cells (RBC), read-out: Selectivity Index
MEASURED_PROPERTY: selectivity ratio

TEST_SMILES: Fc1ccc(N/N=C/c2ccc(-c3cccc(/C=N/Nc4ccc(F)cc4F)c3)cc2)c(F)c1
REPORTED_MEASUREMENT: 1 to 32

---

- ASSAY: Selectivity index, ratio of compound concentration showing <20 to <25% hemolysis in mouse RBC to MIC for fluconazole/ITC-resistant Candida albicans ATCC 64124
- Assay type: toxicity
- PROTOCOL_CONDITIONS: red blood cells (erythrocytes), read-out: Selectivity Index
This listing pairs molecules with measured selectivity ratio.

TEST_SMILES: C(=N\Nc1ccccc1)/c1ccc(-c2cccc(/C=N/Nc3ccccc3)c2)cc1
selectivity ratio: 1 to 32
//
TEST_SMILES: C(=N\Nc1ccccc1)/c1ccc(-c2ccc(/C=N/Nc3ccccc3)cc2)cc1
selectivity ratio: 1 to 32

---

- ASSAY: Selectivity index, ratio of CC50 for human A549 cells to MIC for Aspergillus flavus ATCC MYA-3631
- Type: toxicity
- PROTOCOL_CONDITIONS: read-out: Selectivity Index
This listing pairs molecules with measured selectivity ratio.

TEST_SMILES: Fc1ccc(N/N=C/c2ccc(-c3cccc(/C=N/Nc4ccc(F)cc4)c3)cc2)cc1
CENSOR_SYMBOL: =
selectivity ratio: 2
--
TEST_SMILES: Fc1ccc(N/N=C/c2ccc(-c3cccc(/C=N/Nc4ccc(F)cc4F)c3)cc2)c(F)c1
CENSOR_SYMBOL: =
selectivity ratio: 2.1
--
TEST_SMILES: C(=N\Nc1ccccc1)/c1ccc(-c2cccc(/C=N/Nc3ccccc3)c2)cc1
CENSOR_SYMBOL: =
selectivity ratio: 8
--
TEST_SMILES: C/C(=N\Nc1ccc(F)cc1)c1ccc(-c2ccc(/C(C)=N/Nc3ccc(F)cc3)cc2)cc1
CENSOR_SYMBOL: =
selectivity ratio: 0.5
--
TEST_SMILES: COc1ccc(N/N=C/c2ccc(-c3ccc(/C=N/Nc4ccc(OC)cc4)cc3)cc2)cc1
CENSOR_SYMBOL: =
selectivity ratio: 1
--
TEST_SMILES: C(=N\Nc1ccccc1)/c1ccc(-c2ccc(/C=N/Nc3ccccc3)cc2)cc1
CENSOR_SYMBOL: =
selectivity ratio: 4.5
--
TEST_SMILES: COc1ccc(N/N=C/c2ccc(-c3cccc(/C=N/Nc4ccc(OC)cc4)c3)cc2)cc1
CENSOR_SYMBOL: =
selectivity ratio: 0.6
--
TEST_SMILES: Fc1ccccc1N/N=C/c1ccc(-c2cccc(/C=N/Nc3ccccc3F)c2)cc1
CENSOR_SYMBOL: >
selectivity ratio: 4.2

---

- Test system: Candida albicans
- ASSAY: Antifungal activity against fluconazole/ITC-susceptible Candida albicans ATCC MYA-2310 measured after 48 hrs by CLSI M27-A3 protocol based method
- Type: functional
- PROTOCOL_CONDITIONS: ATCC MYA-2310, 48 h
This listing pairs compounds with measured MIC.
MEASURED_PROPERTY: MIC (µg/mL)

COMPOUND: N=C(N)N/N=C/c1ccc(-c2ccc(/C=N/NC(=N)N)cc2)cc1
CENSOR_SYMBOL: >
REPORTED_MEASUREMENT: 31.3
--
COMPOUND: Fc1ccc(N/N=C/c2ccc(-c3cccc(/C=N/Nc4ccc(F)cc4)c3)cc2)cc1
CENSOR_SYMBOL: =
REPORTED_MEASUREMENT: 7.8
--
COMPOUND: Fc1cccc(N/N=C/c2ccc(-c3ccc(/C=N/Nc4cccc(F)c4F)cc3)cc2)c1F
CENSOR_SYMBOL: >
REPORTED_MEASUREMENT: 31.3
--
COMPOUND: Fc1ccccc1N/N=C/c1ccc(-c2cccc(/C=N/Nc3ccccc3F)c2)cc1
CENSOR_SYMBOL: =
REPORTED_MEASUREMENT: 31.3
--
COMPOUND: COc1ccccc1N/N=C(\C)c1ccc(-c2ccc(/C(C)=N/Nc3ccccc3OC)cc2)cc1
CENSOR_SYMBOL: >
REPORTED_MEASUREMENT: 31.3
--
COMPOUND: COc1ccc(N/N=C(\C)c2ccc(-c3ccc(/C(C)=N/Nc4ccc(OC)cc4)cc3)cc2)cc1
CENSOR_SYMBOL: =
REPORTED_MEASUREMENT: 15.6
--
COMPOUND: CC(C)(C)N/N=C/c1ccc(-c2ccc(/C=N/NC(C)(C)C)cc2)cc1
CENSOR_SYMBOL: =
REPORTED_MEASUREMENT: 31.3
--
COMPOUND: COc1cccc(N/N=C(\C)c2ccc(-c3ccc(/C(C)=N/Nc4cccc(OC)c4)cc3)cc2)c1
CENSOR_SYMBOL: =
REPORTED_MEASUREMENT: 15.6
--
COMPOUND: CC[C@H](C)C[C@H](C)CCCCCCCCC(=O)N[C@H]1C[C@@H](O)[C@@H](NCCN)NC(=O)[C@@H]2[C@@H](O)CCN2C(=O)[C@H]([C@H](O)CCN)NC(=O)[C@H]([C@H](O)[C@@H](O)c2ccc(O)cc2)NC(=O)[C@@H]2C[C@@H](O)CN2C(=O)[C@H]([C@@H](C)O)NC1=O [CASPOFUNGIN]
CENSOR_SYMBOL: =
REPORTED_MEASUREMENT: 0.12
--
COMPOUND: C(=N\Nc1ccccc1)/c1ccc(-c2ccc(/C=N/Nc3ccccc3)cc2)cc1
CENSOR_SYMBOL: >
REPORTED_MEASUREMENT: 31.3
--
COMPOUND: Brc1ccc(N/N=C/c2ccc(-c3cccc(/C=N/Nc4ccc(Br)cc4)c3)cc2)cc1
CENSOR_SYMBOL: >
REPORTED_MEASUREMENT: 31.3
--
COMPOUND: Fc1ccc(N/N=C/c2ccc(-c3ccc(/C=N/Nc4ccc(F)cc4)cc3)cc2)cc1
CENSOR_SYMBOL: =
REPORTED_MEASUREMENT: 15.6
--
COMPOUND: Clc1ccc(N/N=C/c2ccc(-c3ccc(/C=N/Nc4ccc(Cl)cc4)cc3)cc2)cc1
CENSOR_SYMBOL: >
REPORTED_MEASUREMENT: 31.3
--
COMPOUND: Fc1cccc(N/N=C/c2ccc(-c3ccc(/C=N/Nc4cccc(F)c4)cc3)cc2)c1
CENSOR_SYMBOL: >
REPORTED_MEASUREMENT: 31.3
--
COMPOUND: N#Cc1ccc(N/N=C/c2ccc(-c3ccc(/C=N/Nc4ccc(C#N)cc4)cc3)cc2)cc1
CENSOR_SYMBOL: >
REPORTED_MEASUREMENT: 31.3
--
COMPOUND: Fc1cccc(N/N=C/c2ccc(-c3cccc(/C=N/Nc4cccc(F)c4F)c3)cc2)c1F
CENSOR_SYMBOL: >
REPORTED_MEASUREMENT: 31.3
--
COMPOUND: C[C@@H](c1ncncc1F)[C@](O)(Cn1cncn1)c1ccc(F)cc1F [VORICONAZOLE]
CENSOR_SYMBOL: =
REPORTED_MEASUREMENT: 0.12
--
COMPOUND: C/C(=N\Nc1ccc(F)cc1)c1ccc(-c2ccc(/C(C)=N/Nc3ccc(F)cc3)cc2)cc1
CENSOR_SYMBOL: =
REPORTED_MEASUREMENT: 1.95
--
COMPOUND: Clc1ccc(N/N=C/c2ccc(-c3cccc(/C=N/Nc4ccc(Cl)cc4)c3)cc2)cc1
CENSOR_SYMBOL: =
REPORTED_MEASUREMENT: 31.3
--
COMPOUND: Fc1cc(F)cc(N/N=C/c2ccc(-c3ccc(/C=N/Nc4cc(F)cc(F)c4)cc3)cc2)c1
CENSOR_SYMBOL: >
REPORTED_MEASUREMENT: 31.3
--
COMPOUND: CC(C)Oc1ccc(N/N=C/c2ccc(-c3ccc(/C=N/Nc4ccc(OC(C)C)cc4)cc3)cc2)cc1
CENSOR_SYMBOL: >
REPORTED_MEASUREMENT: 31.3
--
COMPOUND: C(=N\Nc1ccccc1)/c1ccc(-c2cccc(/C=N/Nc3ccccc3)c2)cc1
CENSOR_SYMBOL: =
REPORTED_MEASUREMENT: 31.3
--
COMPOUND: Fc1ccccc1N/N=C/c1ccc(-c2ccc(/C=N/Nc3ccccc3F)cc2)cc1
CENSOR_SYMBOL: >
REPORTED_MEASUREMENT: 31.3
--
COMPOUND: C/C(=N\NC(=N)N)c1ccc(-c2ccc(/C(C)=N/NC(=N)N)cc2)cc1
CENSOR_SYMBOL: =
REPORTED_MEASUREMENT: 15.6
--
COMPOUND: N=C(N)N/N=C/c1ccc(-c2cccc(/C=N/NC(=N)N)c2)cc1
CENSOR_SYMBOL: =
REPORTED_MEASUREMENT: 3.9
--
COMPOUND: Fc1ccc(N/N=C/c2ccc(-c3cccc(/C=N/Nc4ccc(F)cc4F)c3)cc2)c(F)c1
CENSOR_SYMBOL: =
REPORTED_MEASUREMENT: 15.6
--
COMPOUND: Fc1cc(F)cc(N/N=C/c2ccc(-c3cccc(/C=N/Nc4cc(F)cc(F)c4)c3)cc2)c1
CENSOR_SYMBOL: >
REPORTED_MEASUREMENT: 31.3
--
COMPOUND: COc1ccc(N/N=C/c2ccc(-c3ccc(/C=N/Nc4ccc(OC)cc4)cc3)cc2)cc1
CENSOR_SYMBOL: =
REPORTED_MEASUREMENT: 3.9
--
COMPOUND: Fc1ccc(N/N=C/c2ccc(-c3ccc(/C=N/Nc4ccc(F)cc4F)cc3)cc2)c(F)c1
CENSOR_SYMBOL: >
REPORTED_MEASUREMENT: 31.3
--
COMPOUND: Brc1ccc(N/N=C/c2ccc(-c3ccc(/C=N/Nc4ccc(Br)cc4)cc3)cc2)cc1
CENSOR_SYMBOL: >
REPORTED_MEASUREMENT: 31.3
--
COMPOUND: Fc1cccc(N/N=C/c2ccc(-c3cccc(/C=N/Nc4cccc(F)c4)c3)cc2)c1
CENSOR_SYMBOL: >
REPORTED_MEASUREMENT: 31.3
